assay-info: 7-day multiple ascending dose
Type: in vivo, human
study-conditions: male, human, plasma, oral, mean T 1/2 after 7-day repeat administration (range), MAD, 5 and 10 mg/day, Day 7
measured-property: half-life

Query: Item under review: CCOc1ccc(Cc2cc([C@@H]3S[C@H](CO)[C@@H](O)[C@H](O)[C@H]3O)c(OC)cc2C)cc1 [luseogliflozin] . Reported half-life?
Reply: 9.14 to 10.7 h

---

assay-info: Single ascending dose
Format: in vivo, human
study-conditions: male, human, plasma, po, 5 mg
measured-property: Cmax (ng/mL)
Numbers only, in ng/mL.

Query: Look at this compound and give its reported Cmax. CCOc1ccc(Cc2cc([C@@H]3S[C@H](CO)[C@@H](O)[C@H](O)[C@H]3O)c(OC)cc2C)cc1 [luseogliflozin]
Reply: 205

---

assay-info: Single ascending dose
Format: in vivo, human
study-conditions: male, human, plasma, po
measured-property: half-life

Query: # get_value(readout='half-life', item= "CCOc1ccc(Cc2cc([C@@H]3S[C@H](CO)[C@@H](O)[C@H](O)[C@H]3O)c(OC)cc2C)cc1" )
Reply: 9.23 to 13.8 h

---

assay-info: Single ascending dose
Assay type: in vivo, human
study-conditions: male, human, plasma, po, 25 mg
measured-property: Cmax (ng/mL)
Give bare numbers, in ng/mL.

Query: Which Cmax value is on record for CCOc1ccc(Cc2cc([C@@H]3S[C@H](CO)[C@@H](O)[C@H](O)[C@H]3O)c(OC)cc2C)cc1 [luseogliflozin] ?
Reply: 721

---

assay-info: Single ascending dose
Type: in vivo, human
study-conditions: human, plasma, po, 5 mg
measured-property: Cmax (ng/mL)
Numbers only, in ng/mL.

Query: Value lookup for Cmax; key = CCOc1ccc(Cc2cc([C@@H]3S[C@H](CO)[C@@H](O)[C@H](O)[C@H]3O)c(OC)cc2C)cc1 [luseogliflozin]
Reply: 187

---

assay-info: Single ascending dose
Type: in vivo, human
study-conditions: human, plasma, po, 9 mg
measured-property: Tmax (h)
Numbers only, in h.

Query: Name the recorded Tmax for CCOc1ccc(Cc2cc([C@@H]3S[C@H](CO)[C@@H](O)[C@H](O)[C@H]3O)c(OC)cc2C)cc1 [luseogliflozin] .
Reply: 1.25

---

assay-info: Single ascending dose
Assay type: in vivo, human
study-conditions: male, human, plasma, po, 5 mg
measured-property: Tmax
Hi, when you answer, please include the unit after the number. Thanks!

Query: For CCOc1ccc(Cc2cc([C@@H]3S[C@H](CO)[C@@H](O)[C@H](O)[C@H]3O)c(OC)cc2C)cc1 [luseogliflozin] , what is its reported Tmax?
Reply: 45 min

---

assay-info: Single ascending dose
Type: in vivo, human
study-conditions: human, plasma, po, 5 mg
measured-property: Tmax (h)
One number for each entry, in h.

Query: Need Tmax of CCOc1ccc(Cc2cc([C@@H]3S[C@H](CO)[C@@H](O)[C@H](O)[C@H]3O)c(OC)cc2C)cc1 [luseogliflozin] , thanks.
Reply: 1.06

---

assay-info: 7-day multiple ascending dose
Type: in vivo, human
study-conditions: human, plasma, po, 5 mg/day
measured-property: AUC (ng·h/mL)
Give bare numbers, in ng·h/mL.

Query: Quick check: AUC of CCOc1ccc(Cc2cc([C@@H]3S[C@H](CO)[C@@H](O)[C@H](O)[C@H]3O)c(OC)cc2C)cc1 [luseogliflozin] ?
Reply: 1980

---

assay-info: Single ascending dose
Assay type: in vivo, human
study-conditions: male, human, plasma, po, 1 mg
measured-property: Vd/F (L)
Answers are plain numbers, in L.

Query: Fill in the blank: the reported Vd/F of "CCOc1ccc(Cc2cc([C@@H]3S[C@H](CO)[C@@H](O)[C@H](O)[C@H]3O)c(OC)cc2C)cc1" is ____.
Reply: 45.3

---

assay-info: Single ascending dose
Format: in vivo, human
study-conditions: human, plasma, po, 9 mg
measured-property: Cmax (µg/mL)
Numbers only, in µg/mL.

Query: Give its Cmax value. Item: "CCOc1ccc(Cc2cc([C@@H]3S[C@H](CO)[C@@H](O)[C@H](O)[C@H]3O)c(OC)cc2C)cc1"
Reply: 0.312

---

assay-info: Single ascending dose
Type: in vivo, human
study-conditions: human, plasma, po, 25 mg
measured-property: Vd/F (L)
Answers are plain numbers, in L.

Query: Entry under review: CCOc1ccc(Cc2cc([C@@H]3S[C@H](CO)[C@@H](O)[C@H](O)[C@H]3O)c(OC)cc2C)cc1 [luseogliflozin] . Reported Vd/F?
Reply: 54.7

---

assay-info: Single ascending dose
Assay type: in vivo, human
study-conditions: human, plasma, po, 15 mg
measured-property: Vd/F (L)
One number for each entry, in L.

Query: # query: Vd/F of entry "CCOc1ccc(Cc2cc([C@@H]3S[C@H](CO)[C@@H](O)[C@H](O)[C@H]3O)c(OC)cc2C)cc1"
Reply: 60.5

---

assay-info: Single ascending dose
Type: in vivo, human
study-conditions: male, human, plasma, po, 3 mg
measured-property: half-life (h)
Give bare numbers, in h.

Query: Need half-life, item "CCOc1ccc(Cc2cc([C@@H]3S[C@H](CO)[C@@H](O)[C@H](O)[C@H]3O)c(OC)cc2C)cc1"
Reply: 9.23

---

assay-info: Single ascending dose
Type: in vivo, human
study-conditions: male, human, plasma, po, 15 mg
measured-property: Cmax
Remember to follow the number with its unit.

Query: Param item = "CCOc1ccc(Cc2cc([C@@H]3S[C@H](CO)[C@@H](O)[C@H](O)[C@H]3O)c(OC)cc2C)cc1" ; retrieve measured Cmax.
Reply: 544 ng/mL

---

assay-info: Single ascending dose
Type: in vivo, human
study-conditions: human, plasma, po, 5 mg, λz, SAD, single oral 5 mg, fasting, N = 8, mean ± SD
measured-property: k el
Numeric answer plus unit only.

Query: For CCOc1ccc(Cc2cc([C@@H]3S[C@H](CO)[C@@H](O)[C@H](O)[C@H]3O)c(OC)cc2C)cc1 [luseogliflozin] , what is its reported k el?
Reply: 2.01e-05 s⁻¹

---

assay-info: Single ascending dose
Type: in vivo, human
study-conditions: male, human, plasma, po, 5 mg
measured-property: Vd/F (L)
Numbers only, in L.

Query: Reported Vd/F for "CCOc1ccc(Cc2cc([C@@H]3S[C@H](CO)[C@@H](O)[C@H](O)[C@H]3O)c(OC)cc2C)cc1" : what is it?
Reply: 38.7

---

assay-info: Single ascending dose
Type: in vivo, human
study-conditions: human, plasma, po, 9 mg, λz, SAD, single oral 9 mg, fasting, N = 8, mean ± SD
measured-property: k el (s⁻¹)
Answers are plain numbers, in s⁻¹.

Query: Please report the recorded k el for CCOc1ccc(Cc2cc([C@@H]3S[C@H](CO)[C@@H](O)[C@H](O)[C@H]3O)c(OC)cc2C)cc1 [luseogliflozin] .
Reply: 1.96e-05

---

assay-info: Single ascending dose
Assay type: in vivo, human
study-conditions: human, plasma, po, 1 mg
measured-property: Tmax (min)
Answers are plain numbers, in min.

Query: Fill in the blank: the reported Tmax of CCOc1ccc(Cc2cc([C@@H]3S[C@H](CO)[C@@H](O)[C@H](O)[C@H]3O)c(OC)cc2C)cc1 [luseogliflozin] is ____.
Reply: 40

---

assay-info: Single ascending dose
Type: in vivo, human
study-conditions: male, human, plasma, po, 9 mg
measured-property: Vd/F (L)
Numbers only, in L.

Query: What Vd/F value was documented for this compound, CCOc1ccc(Cc2cc([C@@H]3S[C@H](CO)[C@@H](O)[C@H](O)[C@H]3O)c(OC)cc2C)cc1 [luseogliflozin] ?
Reply: 42.4

---

assay-info: Single ascending dose
Format: in vivo, human
study-conditions: male, human, plasma, po, 3 mg
measured-property: Vd/F
I'd appreciate it if you wrote the number followed by its unit.

Query: Recorded Vd/F of CCOc1ccc(Cc2cc([C@@H]3S[C@H](CO)[C@@H](O)[C@H](O)[C@H]3O)c(OC)cc2C)cc1 [luseogliflozin] , please.
Reply: 41.4 L

---

assay-info: Single ascending dose
Type: in vivo, human
study-conditions: male, human, plasma, po
measured-property: Tmax

Query: Could you tell me which Tmax is on file for "CCOc1ccc(Cc2cc([C@@H]3S[C@H](CO)[C@@H](O)[C@H](O)[C@H]3O)c(OC)cc2C)cc1" ?
Reply: 0.667 to 2.25 h

---

assay-info: Single ascending dose
Format: in vivo, human
study-conditions: human, plasma, po, 5 mg
measured-property: Vd/F (L)
One number for each entry, in L.

Query: What measured Vd/F goes with "CCOc1ccc(Cc2cc([C@@H]3S[C@H](CO)[C@@H](O)[C@H](O)[C@H]3O)c(OC)cc2C)cc1" ?
Reply: 38.9

---

assay-info: Single ascending dose
Type: in vivo, human
study-conditions: male, human, plasma, po, 1 mg
measured-property: half-life (h)
One number for each entry, in h.

Query: What does the data say about its half-life? Entry: CCOc1ccc(Cc2cc([C@@H]3S[C@H](CO)[C@@H](O)[C@H](O)[C@H]3O)c(OC)cc2C)cc1 [luseogliflozin]
Reply: 10.4
